Recorded measurements of Survival %, one per entry
Tested on: anaesthetized rats
Test: Reperfusion-induced arrhytmia (ventricular tachycardia and fibrillation) after LAD coronary occlusion in anaesthetized rats; survival
Type: in vivo
Conditions: rat, 1 mg/kg i.v. 5 minutes before pressing LAD coronary artery; 5 min ischaemia, 10 min reperfusion
Report the figure in % without appending any unit label.

{"columns": ["compound", "units", "Survival %"],
 "data": [
  ["CCCCCCCNC(=O)NOCC(O)CN1CCCCC1 (stereo not shown) [Example 23]", "%", 80]
]}

Q. Answer with the recorded Survival % of CCCNC(=O)NOCC(O)CN1CCCCC1 (stereo not shown) [Example 4] only.
A. 67

Q. Please report Survival % for the following compound: O=C(NOCC(O)CN1CCCCC1)Nc1cccc(Cl)c1 (stereo not shown) [Example 7]
A. 86

Q. Identify the reported Survival % for the following entry. O=C(NOCC(O)CN1CCCCC1)NC1CCCCC1 (stereo not shown) [Example 5]
A. 67

----------
Tested on: anaesthetized rats
Assay: Reperfusion-induced arrhytmia (ventricular tachycardia and fibrillation) after LAD coronary occlusion in anaesthetized rats; survival
Format: in vivo
Settings: rat, 1 mg/kg i.v. 5 minutes before pressing LAD coronary artery; 5 min ischaemia, 10 min reperfusion
measure: Survival % (%)
Please reply with the bare figure in % and do not write the unit itself.

Example results:
{"columns": ["compound", "units", "readout-number"],
 "data": [
  ["CC(C)(C)N(CC(O)CONC(=O)NC1CCCCC1)C(=O)NC1CCCCC1 (stereo not drawn) [Example 15]", "%", 60],
  ["CCCCCCNC(=O)NOCC(O)CN1CCCCC1 (stereo not drawn) [Example 6]", "%", 100]
]}

API: the following record is the query input.
Q. Provide Survival % value for the following compound: CCCCCCNC(=O)NOCCCN1CCCCC1 [Example 16, N-n-hexyl-N'-(3-piperidino-propoxy)-urea]
A. 83
